Reference source: patent US20030148958A1

- measured target: T1, CRF2R
- T1 sequence (Q13324 whole entry, species assumed, looked up): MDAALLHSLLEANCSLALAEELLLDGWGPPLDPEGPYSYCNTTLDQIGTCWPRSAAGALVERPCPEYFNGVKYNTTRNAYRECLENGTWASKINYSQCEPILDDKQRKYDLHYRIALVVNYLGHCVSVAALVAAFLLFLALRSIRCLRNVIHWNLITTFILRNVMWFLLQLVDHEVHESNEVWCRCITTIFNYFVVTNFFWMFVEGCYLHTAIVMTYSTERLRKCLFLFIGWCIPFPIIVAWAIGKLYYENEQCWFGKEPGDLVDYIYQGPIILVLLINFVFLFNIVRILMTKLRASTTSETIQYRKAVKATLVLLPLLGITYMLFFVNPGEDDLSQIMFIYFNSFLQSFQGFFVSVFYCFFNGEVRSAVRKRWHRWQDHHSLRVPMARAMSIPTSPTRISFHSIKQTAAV
- protocol: cell-based or functional assay
Ends that are not written are not given here.
readout name: CRF2R Emax %
Phrase the answer as number then unit, nothing more needed.

ZGPPISIDLSLELLRKMIEIEKQEKEKQQAANNRLLLDTI (C-terminal amide) [SEQ ID NO 355]: 95%
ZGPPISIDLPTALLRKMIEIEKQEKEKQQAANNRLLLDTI (C-terminal amide) [SEQ ID NO 301]: 88.4%

Next up:
// query CRF2R Emax % value for entry NDDPPISIDLPFLLLRNMIEMARIENEREQAGLNAKYLAEV-NH2 [SEQ ID NO 260]
89.3%
